Source: the METLIN SMRT retention time set (Domingo-Almenara et al. 2019)

test-description: gradient 5% acetonitrile 3 min, to 50% in 2 min, to 85% in 15 min, held 3 min, 100 µL/min
measurement-setup: column: Zorbax Extend-C18 2.1 x 50 mm; eluents: water / acetonitrile, 0.1% formic acid
measure-name: RP-LC retention time (s)
Reply with just the number (in s).

Query: State the recorded RP-LC retention time for this entry: CCc1cccc(NC(=O)c2cc(C(C)C)n3nccc3n2)c1
Response: 1240

Query: Which measured RP-LC retention time value corresponds to COc1ccc(N2CC(c3noc(-c4ccc(Cl)cc4OC)n3)CC2=O)cc1 (centres undefined) ?
Response: 971

Query: Endpoint output: RP-LC retention time of O=C(c1cncc(Br)c1)N1CCC(Cc2nc(-c3ccc(Cl)cc3)no2)CC1 . Value?
Response: 1050

Query: Need RP-LC retention time of O=C1NC2(CCN(C(=O)c3cccc(Cl)c3)CC2)N=C1c1ccccc1 , thanks.
Response: 832

Query: Entry CN(Cc1ccco1)C(=O)c1ccc(-n2cc(CNC(=O)C3CC3)cn2)cc1 has what RP-LC retention time?
Response: 676

Query: Any idea what its RP-LC retention time is? The molecule is O=C(NCc1cccs1)c1ccc2ncnc(N3CCCCC3)c2c1
Response: 644

Query: What RP-LC retention time value was documented for this molecule, Cc1cnc(C(=O)NC2C[C@H]3CC[C@@H](C2)N3C(=O)C2CCCCCC2)cn1 (some centres undefined) ?
Response: 733

Query: Quick check: RP-LC retention time of COc1ccc(CN2C=C(C(=O)OCc3nc(-c4ccccc4F)no3)C(C)=NS2(=O)=O)cc1 ?
Response: 1060

Query: # lookup: RP-LC retention time of COc1ccc(C(C)NC(=O)C2CCCN(c3cnc4nccnc4c3)C2)cc1OC (centres undefined)
Response: 663
